# Assay method text: Mean residence time (0 to infinity) in fasted C57BL/6 mouse at 3 mg/kg, iv by LC-MS/MS analysis
# Measurement conditions: in vivo
Measurement type: MRT inf

query: What does the data say about its MRT inf? Entry: CC(=O)Nc1ccc(Nc2ncnc(NCCC(=O)OC(C)(C)C)n2)cc1
result: 15.7 min

* * *

# Assay method text: AUC (0 to infinity) in fasted C57BL/6 mouse at 10 mg/kg, po by LC-MS/MS analysis
# Format: ADME, organism-based
# Design: time infinity, dose 10 mg/kg, route po
# Measurement conditions: in vivo
Measurement type: AUC(0-inf) (ng·h/mL)
Numbers only, in ng·h/mL.

query: What does the data say about its AUC(0-inf)? Entry: CC(=O)Nc1ccc(Nc2ncnc(NCCC(=O)OC(C)(C)C)n2)cc1
result: 653
